- Test: Moisture sorption/desorption studies (hygrostat, storage at different temperatures and relative humidity)
- Type: physicochemical
- Assay context: Room Temperature, 94% RH, 4 d
Metric name: water content (Table III)
Returns: string containing the numeric result and its unit.

Request: Provide water content (Table III) value for the following molecule: CN1C2CCC1CC(NC(=O)n1c(=O)[nH]c3ccccc31)C2 (stereo not shown) [Compound 1a, reference compound]
Result: 5.39%

###

- Test: Moisture sorption/desorption studies (hygrostat, storage at different temperatures and relative humidity)
- Format: physicochemical
- Assay context: Room Temperature, 94% RH, 8 d; hydrochloride monohydrate
- Method: The determination of the sorption isotherms was carried out in a hygrostat. At suitable intervals, the sample was weighed by means of a sample balance. The atmosphere in the hygrostat and therefore around the sample of compound 1a (1b) and 2a (2b) was conditioned and kept by a saturated solutions of a suitable salt: Na Cl saturated solution 75.3% RH/25° C. 74.8% RH/37° C. KNO3 saturated solution 93.7% RH/25° C. 90.0% RH/37° C. […]
Where a name gives a salt, the structure may show the parent alone.
Metric name: water content (Table III)

Request: Provide water content (Table III) value for the following compound: CN1C2CCC1CC(NC(=O)n1c(=O)[nH]c3ccccc31)C2 (stereo not shown) [Compound 2a, hydrochloride monohydrate]
Result: 5.48%

###

- Test: Moisture sorption/desorption studies (hygrostat, storage at different temperatures and relative humidity)
- Assay type: physicochemical
- Assay context: Room Temperature, 75% RH, 4 h
Metric name: water content (Table III) (%)
One number for each entry, in %.

Request: Provide water content (Table III) value for the following molecule: CN1C2CCC1CC(NC(=O)n1c(=O)[nH]c3ccccc31)C2 (stereo not shown) [Compound 1a, reference compound]
Result: 0.74

###

- Test: Moisture sorption/desorption studies (hygrostat, storage at different temperatures and relative humidity)
- Format: physicochemical
- Assay context: Room Temperature, 94% RH, 6 h; hydrochloride monohydrate
Counter-ions that a name gives are not always drawn.
Metric name: water content (Table III) (%)
One number for each entry, in %.

Request: Provide water content (Table III) value for the following compound: CN1C2CCC1CC(NC(=O)n1c(=O)[nH]c3ccccc31)C2 (stereo not shown) [Compound 2a, hydrochloride monohydrate]
Result: 5.51

###

- Test: Moisture sorption/desorption studies (hygrostat, storage at different temperatures and relative humidity)
- Format: physicochemical
- Assay context: Room Temperature, 94% RH, 20 d; hydrochloride monohydrate
Where a name gives a salt, the structure may show the parent alone.
Metric name: water content (Table III) (%)
Give bare numbers, in %.

Request: Provide water content (Table III) value for the following molecule: CN1C2CCC1CC(NC(=O)n1c(=O)[nH]c3ccccc31)C2 (stereo not shown) [Compound 2a, hydrochloride monohydrate]
Result: 5.49

###

- Test: Moisture sorption/desorption studies (hygrostat, storage at different temperatures and relative humidity)
- Format: physicochemical
- Assay context: Room Temperature, 75% RH, 4 d; hydrochloride monohydrate
Where a name gives a salt, the structure may show the parent alone.
Metric name: water content (Table III)
Returns: string containing the numeric result and its unit.

Request: Provide water content (Table III) value for the following compound: CN1C2CCC1CC(NC(=O)n1c(=O)[nH]c3ccccc31)C2 (stereo not shown) [Compound 2a, hydrochloride monohydrate]
Result: 5.42%

###

- Test: Moisture sorption/desorption studies (hygrostat, storage at different temperatures and relative humidity)
- Assay type: physicochemical
- Assay context: Room Temperature, 75% RH, 4 d
Metric name: water content (Table III)

Request: Provide water content (Table III) value for the following compound: CN1C2CCC1CC(NC(=O)n1c(=O)[nH]c3ccccc31)C2 (stereo not shown) [Compound 1a, reference compound]
Result: 2.54%

Hey, just so you know, these numbers are from patent US5468758A.
